Measured values drawn from patent US20090291081A1 for this set.

Target: T1, human IL-1α (human, UniProt P01583 113-271)
T1 construct: also called IL-1alpha; hIL-1α
T1 sequence (looked up): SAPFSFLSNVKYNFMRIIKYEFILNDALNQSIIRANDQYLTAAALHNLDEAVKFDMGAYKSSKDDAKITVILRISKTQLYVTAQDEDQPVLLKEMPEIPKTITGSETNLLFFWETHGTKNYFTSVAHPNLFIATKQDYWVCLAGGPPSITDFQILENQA
Assay: Table 60 heading; dAbs from selection on antigen

binder: ABT1-122-510 (other, VK dAb) VL: DIQMTQSPSSLSASVGDRVTITCRFSYPIWTELNWYQQKPGKAPKLLIYGSSSLQSGVPSRFSGSGSGTDFTLTISSLQPEDFATYYCQQFAYFPATFGQGTKVEIKR
binding result: binds
--
binder: ABT1-122-505 (other, VK dAb) VL: DIQMTQSPSSLSASVGDRVTITCRASQPIWTELNWYQQKPGKAPKLLIYGSSSLQSGVPSRFSGSGSGTDFTLTISSLQPEDFATYYCKQFAYFPATFGQGTKVEIKR
binding result: binds
